experiment: In vivo pharmacokinetic profile in rat after IV injection (ELISA); settings: male, Sprague Dawley, in vivo; rat, intravenous; SST 0.02 mg/kg, SST fusion protein 27.1 mg/kg; read-out: Vdss, Mean
readout.name: Vd (L/kg)
All answers are understood in L/kg, so give the number only.

# query: Vd of entry C[C@H](N)C(=O)NCC(=O)N[C@H]1CSSC[C@@H](C(=O)O)NC(=O)[C@H](CO)NC(=O)[C@H]([C@@H](C)O)NC(=O)[C@H](Cc2ccccc2)NC(=O)[C@H]([C@@H](C)O)NC(=O)[C@H](CCCCN)NC(=O)[C@H](Cc2c[nH]c3ccccc23)NC(=O)[C@H](Cc2ccccc2)NC(=O)[C@H](Cc2ccccc2)NC(=O)[C@H](CC(N)=O)NC(=O)[C@H](CCCCN)NC1=O [Free SST]
2.19

Numbers sourced from patent US20170002057A1.
